Where do these numbers come from? They come from the supplement of paper PMC12042874.

- test: amyloid nucleation score (Sup35N fusion, yeast selection) (log enrichment); library NNK3; higher = more nucleation; inactive = no reads after selection;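 also: zero at mode of non-aggregating sequences after 7 days selection at 30°C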
measurement-label: amyloid nucleation score

Below, each entry is followed by its recorded amyloid nucleation score result.
### Prompt Quick one: give measured amyloid nucleation score for SYTSMFPRCQKIHLRQVRIS
### Response inactive

### Prompt State its amyloid nucleation score for this substance: FGTVAWPITFIIRMAVGSSC
### Response 0.936

### Prompt Look up amyloid nucleation score of YYTSYIAGNLAFNTSKFRKM and report it.
### Response -0.347

### Prompt Return the recorded amyloid nucleation score value; entry: LHCFIMLIKCDRVMIVTVQG
### Response inactive

### Prompt Look up amyloid nucleation score of TMVYPKIPGGRTLAWDMTGR and report it.
### Response inactive

---
### Prompt Please report the measured amyloid nucleation score for NGWCHYWVWASIYDPNEISA
### Response inactive

### Prompt Give amyloid nucleation score for IYVVRIYVSWVNILHALVYS
### Response inactive

### Prompt Provide one value: measured amyloid nucleation score of LCVFWCGIPDRVFCNNGWMV
### Response inactive

### Prompt State its amyloid nucleation score for this substance: PWRRDKSGVVLSWDAISFAW
### Response inactive

### Prompt State its amyloid nucleation score for this substance: TGHWNSDWFLI
### Response inactive

### Prompt Give recorded amyloid nucleation score. EGRRPKYIGNESRYNMYHPY
### Response inactive

### Prompt Give amyloid nucleation score for the following substance: LCSVDVVLPVKYCVLPDH
### Response 1.76

### Prompt Using known records, supply amyloid nucleation score for GTYVKLLEVFTSFSWFRRFF
### Response inactive
